Test system: A549
measurementNotes: Cellular uptake in human A549 cells at 10 uM by FACS relative to initial rate
Type: ADME, cell-based
recordedConditions: a549, 10 µM
// reported Drug uptake for each item listed
Respond using a number only.

COC[C@H]1OC(=O)/C(=C\NCCCCCC(=O)O)C2=C(O)C(=O)C3=C([C@H](OC(=O)CCCCN(C)c4ccc([N+](=O)[O-])c5nonc45)C[C@]4(C)C(=O)CC[C@@H]34)[C@]21C :: 0.0271
COC[C@H]1OC(=O)c2coc3c2[C@@]1(C)C1=C(C3=O)[C@@H]2CCC(=O)[C@@]2(C)C[C@H]1OC(=O)CCCCN(C)c1ccc([N+](=O)[O-])c2nonc12 :: 1
COC[C@H]1OC(=O)/C(=C\N(C)c2ccncc2)C2=C(O)C(=O)C3=C([C@H](OC(=O)CCCCN(C)c4ccc([N+](=O)[O-])c5nonc45)C[C@]4(C)C(=O)CC[C@@H]34)[C@]21C :: 1.199

IN: Field request: Drug uptake | item: COC[C@H]1OC(=O)/C(=C\N(C)CCCCCC(=O)O)C2=C(O)C(=O)C3=C([C@H](OC(=O)CCCCN(C)c4ccc([N+](=O)[O-])c5nonc45)C[C@]4(C)C(=O)CC[C@@H]34)[C@]21C
OUT: 0.187

IN: Now consider COC[C@H]1OC(=O)/C(=C\N(C)c2ccncc2)C2=C(O)C(=O)C3=C([C@H](OC(C)=O)C[C@]4(C)C(=O)CC[C@@H]34)[C@]21C and answer again.
OUT: 1

====

measurementNotes: Chemical stability assessed as half-times of wortmannin formation at pH 6.8 in phosphate buffer saline
Type: physicochemical
// reported Activity for each item listed

COC[C@H]1OC(=O)/C(=C\N2CCCC2C(=O)O)C2=C(O)C(=O)C3=C([C@H](OC(C)=O)C[C@]4(C)C(=O)CC[C@@H]34)[C@]21C (stereo partly drawn) :: 9.9 h
COC[C@H]1OC(=O)/C(=C\N(C)c2ccncc2)C2=C(O)C(=O)C3=C([C@H](OC(C)=O)C[C@]4(C)C(=O)CC[C@@H]34)[C@]21C :: 2.3 h
COC[C@H]1OC(=O)/C(=C\N(C)CCCCCC(=O)O)C2=C(O)C(=O)C3=C([C@H](OC(C)=O)C[C@]4(C)C(=O)CC[C@@H]34)[C@]21C :: 8.7 h
COC[C@H]1OC(=O)/C(=C\NCCCCCC(=O)O)C2=C(O)C(=O)C3=C([C@H](OC(=O)CCCCN(C)c4ccc([N+](=O)[O-])c5nonc45)C[C@]4(C)C(=O)CC[C@@H]34)[C@]21C :: > 100 h
COC[C@H]1OC(=O)/C(=C\N(C)CCCCCC(=O)O)C2=C(O)C(=O)C3=C([C@H](OC(=O)CCCCN(C)c4ccc([N+](=O)[O-])c5nonc45)C[C@]4(C)C(=O)CC[C@@H]34)[C@]21C :: 8 h

IN: Field request: Activity | item: COC[C@H]1OC(=O)/C(=C\N(C)c2ccncc2)C2=C(O)C(=O)C3=C([C@H](OC(=O)CCCCN(C)c4ccc([N+](=O)[O-])c5nonc45)C[C@]4(C)C(=O)CC[C@@H]34)[C@]21C
OUT: 1.87 h

IN: Now consider COC[C@H]1OC(=O)/C(=C\NCCCCC(=O)O)C2=C(O)C(=O)C3=C([C@H](OC(C)=O)C[C@]4(C)C(=O)CC[C@@H]34)[C@]21C and answer again.
OUT: > 100 h

IN: Now consider COC[C@H]1OC(=O)/C(=C\NCCCCC(NC(C)=O)C(=O)O)C2=C(O)C(=O)C3=C([C@H](OC(C)=O)C[C@]4(C)C(=O)CC[C@@H]34)[C@]21C (stereo partly drawn) and answer again.
OUT: > 100 h
